- Test system: RPE-Neo or RPE-MYC or RPE-MYC expressing an EGFP-Histone 2B fusion protein
- assayName: Phenotypic screening assay (arrest in mitosis, change in DNA content, cell death; GE IN-Cell Analyzer 2000)
- Type: cell-based
- recordedConditions: Homo sapiens; min. effective conc.; compounds 20 nM to 20 μM; 24, 48 or 72 hours; read-out: Cell Death (>30%)
readoutLabel: minimal effective concentration

Some solved cases for reference:
{"compound": "COC(=O)C1=C(O)c2ccccc2N(Cc2cccc(C)c2)C(=O)C1", "systemUnderTest": "RPE-Neo or RPE-MYC or RPE-MYC expressing an EGFP-Histone 2B fusion protein", "minimal effective concentration": "30 to 1000 µM"}
{"compound": "CNC(=O)C1=C(O)c2ccccc2N(Cc2ccc(OC)c(F)c2)C(=O)C1", "systemUnderTest": "RPE-Neo or RPE-MYC or RPE-MYC expressing an EGFP-Histone 2B fusion protein", "minimal effective concentration": "1 to 10 µM"}
{"compound": "COC(=O)C1=C(O)c2ccccc2N(Cc2cccc(F)c2F)C(=O)C1", "systemUnderTest": "RPE-Neo or RPE-MYC or RPE-MYC expressing an EGFP-Histone 2B fusion protein", "minimal effective concentration": "30 to 1000 µM"}

Exam item: # query: minimal effective concentration of entry CNC(=O)C1CC(=O)N(Cc2ccc(C)c(C)c2)c2ccccc2C1=O (stereo not drawn)
Marked response: 1 to 10 µM

Exam item: What minimal effective concentration value was documented for this compound, CC(c1ccc(F)cc1)N1C(=O)CCC(=O)c2ccccc21 (stereo not drawn) ?
Marked response: 30 to 1000 µM
